Please respond with reported melting point for every item in the list.

Here are 4 molecules. What values of melting point were reported for them?
1. CCN1CC[C@@H]2[C@@H](c3ccc(C(=O)OC)cc3)c3cc(C)c(I)cc3[C@@H]2C1.Cl (racemic)
2. CCN1CC[C@@H]2[C@@H](c3ccc(C(=O)O)cc3)c3cc(C)ccc3[C@@H]2C1.Cl (racemic)
3. CCN1CC[C@@H]2[C@@H](c3ccc(C(=O)O)cc3)c3cc(C)c(Br)cc3[C@@H]2C1.Cl (racemic)
4. CCN1CC[C@@H]2[C@@H](c3ccc(C(=O)OC)cc3)c3cc(C)ccc3[C@@H]2C1.Cl (racemic)

Reply:
1. > 190 °C (dec.)
2. 280 °C (dec.)
3. 169.6 to 170.3 °C
4. 204 °C

----------
System: adult male Swiss mice
Assay: Antispermatogenic screen: single gavage dose to male mice, testes weight and Spermatogenic Index at 72 h
Type: in vivo
Settings: racemic compounds; 10 mg/kg single gavage dose; day 3 (72 h); vehicle 90% water, 7% Tween20, 3% ethanol
MEASURED QUANTITY: TW change (%) (testes weight, % change from vehicle control) (%*)
One number for each entry, in %*.

Ask: Return reported TW change (%) (testes weight, % change from vehicle control); argument: CCN1CC[C@@H]2[C@@H](c3ccc(C(=O)OC)cc3)c3cc(C)c(I)cc3[C@@H]2C1.Cl (racemic)
Reply: −36

Here are 2 compounds. What values of TW change (%) (testes weight, % change from vehicle control) were reported for them?
1. CCN1CC[C@@H]2[C@@H](c3ccc(C(=O)O)cc3)c3cc(C)c(I)cc3[C@@H]2C1.Cl (racemic)
2. CCN1CC[C@@H]2[C@@H](c3ccc(C(=O)O)cc3)c3cc(C)c(Br)cc3[C@@H]2C1.Cl (racemic)

Reply:
1. −32
2. −28
